system: Medicago sativa; assay: Herbicidal activity against Medicago sativa at 1.5 kg/hectare administered preemergence of first true leaf measured after 10 days; assay type: functional; conditions: pre-emergence, 240 h
Task for the reader: assign each of the following compounds its reported inhibition at 1500 g/ha.
Could you write the number and then its unit?

Query block: Quick one: inhibition at 1500 g/ha for CCOCCOC(=O)c1c(CC)nn(-c2ccc(Cl)cc2)c1N ?
Result block: 0%

Query block: Quick one: inhibition at 1500 g/ha for CCOCCOC(=O)/C(C#N)=C(/CC)NNc1c(Cl)cc(Cl)cc1Cl ?
Result block: 0%

Query block: Quick one: inhibition at 1500 g/ha for CCOCCOC(=O)/C(C#N)=C(/CC)NNc1c(Cl)cccc1Cl ?
Result block: 0%

* * *

test system: HL-60; assay: Antitumor activity against human HL60 cells at 10 uM/L after 72 hrs by MTT assay; assay type: functional; conditions: HL-60, 72 h
Binning rule for recorded inhibition at 10 µM: 1: < 6%; 2: ≥ 6% and < 20%; 3: ≥ 20%

Query block: Record CCOCCOC(=O)/C(C#N)=C(\NNc1c(Cl)cccc1Cl)C(C)C — which class?
Result block: 2

Query block: Record CCOCCOC(=O)c1c(SC)nn(-c2ccc(Cl)cc2Cl)c1N — which class?
Result block: 2

Query block: Record CCOCCOC(=O)/C(C#N)=C(\NNc1cccc(Cl)c1Cl)C(C)C — which class?
Result block: 3

Query block: Record CCOCCOC(=O)/C(C#N)=C(/CC)NNc1cc(Cl)c(Cl)cc1Cl — which class?
Result block: 2

Query block: Record CCOCCOC(=O)/C(C#N)=C(/CC)NNc1cccc(Cl)c1Cl — which class?
Result block: 3

Query block: Record CCOCCOC(=O)c1c(CC)nn(-c2ccc([N+](=O)[O-])cc2)c1N — which class?
Result block: 1

Query block: Record CCOCCOC(=O)c1c(SC)nn(-c2ccccc2)c1N — which class?
Result block: 2

Query block: Record CCOCCOC(=O)c1c(C(C)C)nn(-c2ccc([N+](=O)[O-])cc2)c1N — which class?
Result block: 2

Query block: Record CCOCCOC(=O)/C(C#N)=C(/CC)NNc1c(Cl)cc(Cl)cc1Cl — which class?
Result block: 3

Query block: Record CCOCCOC(=O)/C(C#N)=C(\NNc1cc(Cl)c(Cl)cc1Cl)C(C)C — which class?
Result block: 3

Query block: Record CCOCCOC(=O)c1c(C(C)C)nn(-c2ccc(Cl)cc2Cl)c1N — which class?
Result block: 1

Query block: Record CCOCCOC(=O)/C(C#N)=C(\NNc1c(Cl)cc(Cl)cc1Cl)C(C)C — which class?
Result block: 1

Query block: Record CCOCCOC(=O)c1c(SC)nn(-c2ccc(C)cc2C)c1N — which class?
Result block: 3

Query block: Record CCOCCOC(=O)c1c(SC)nn(-c2ccc([N+](=O)[O-])cc2)c1N — which class?
Result block: 1

Query block: Record CCOCCOC(=O)/C(C#N)=C(/CC)NNc1c(Cl)cccc1Cl — which class?
Result block: 3

Query block: Record CCOCCOC(=O)/C(C#N)=C(/CC)NNc1ccc(Cl)cc1Cl — which class?
Result block: 1

* * *

system: Botryosphaeria berengeriana; assay: Fungicidal activity against Physalospora pyricola assessed as inhibition of mycelium growth at 50 mg/L after 72 hrs; assay type: functional
Task for the reader: assign each of the following molecules its reported inhibition at 50 µg/mL.
Write the value in % as a bare number.

Query block: Quick one: inhibition at 50 µg/mL for CCOCCOC(=O)/C(C#N)=C(\NNc1cccc(Cl)c1Cl)C(C)C ?
Result block: 66.7

Query block: Quick one: inhibition at 50 µg/mL for CCOCCOC(=O)c1c(CC)nn(-c2ccc([N+](=O)[O-])cc2)c1N ?
Result block: 40

Query block: Quick one: inhibition at 50 µg/mL for CCOCCOC(=O)c1c(SC)nn(-c2ccc(Cl)cc2Cl)c1N ?
Result block: 46.7

Query block: Quick one: inhibition at 50 µg/mL for CCOCCOC(=O)/C(C#N)=C(/CC)NNc1cc(Cl)c(Cl)cc1Cl ?
Result block: 36

Query block: Quick one: inhibition at 50 µg/mL for CCOCCOC(=O)c1c(SC)nn(-c2ccc(Cl)cc2)c1N ?
Result block: 36

Query block: Quick one: inhibition at 50 µg/mL for CCOCCOC(=O)/C(C#N)=C(/CC)NNc1cccc(Cl)c1Cl ?
Result block: 65.3

Query block: Quick one: inhibition at 50 µg/mL for CCOCCOC(=O)c1c(C(C)C)nn(-c2ccc([N+](=O)[O-])cc2)c1N ?
Result block: 46.7

Query block: Quick one: inhibition at 50 µg/mL for CCOCCOC(=O)/C(C#N)=C(\NNc1cc(Cl)c(Cl)cc1Cl)C(C)C ?
Result block: 26.7

Query block: Quick one: inhibition at 50 µg/mL for CCOCCOC(=O)/C(C#N)=C(\NNc1ccc(Cl)cc1Cl)C(C)C ?
Result block: 73.3

Query block: Quick one: inhibition at 50 µg/mL for CCOCCOC(=O)/C(C#N)=C(/CC)NNc1ccc(Cl)cc1Cl ?
Result block: 76

Query block: Quick one: inhibition at 50 µg/mL for CCOCCOC(=O)c1c(SC)nn(-c2ccc(C)cc2C)c1N ?
Result block: 9.3

Query block: Quick one: inhibition at 50 µg/mL for CCOCCOC(=O)c1c(C(C)C)nn(-c2ccccc2)c1N ?
Result block: 32

Query block: Quick one: inhibition at 50 µg/mL for CCOCCOC(=O)c1c(CC)nn(-c2ccc(Cl)cc2)c1N ?
Result block: 38.7

Query block: Quick one: inhibition at 50 µg/mL for CCOCCOC(=O)/C(C#N)=C(/CC)NNc1c(Cl)cccc1Cl ?
Result block: 24

Query block: Quick one: inhibition at 50 µg/mL for CCOCCOC(=O)c1c(C(C)C)nn(-c2ccc(Cl)cc2)c1N ?
Result block: 33.3

Query block: Quick one: inhibition at 50 µg/mL for CCOCCOC(=O)c1c(CC)nn(-c2ccccc2)c1N ?
Result block: 1.3

Query block: Quick one: inhibition at 50 µg/mL for CC1COC(Cn2cncn2)(c2ccc(Oc3ccc(Cl)cc3)cc2Cl)O1 (stereo not given) [DIFENOCONAZOLE] ?
Result block: 100

Query block: Quick one: inhibition at 50 µg/mL for CCOCCOC(=O)/C(C#N)=C(/CC)NNc1c(Cl)cc(Cl)cc1Cl ?
Result block: 46.7

Query block: Quick one: inhibition at 50 µg/mL for CCOCCOC(=O)c1c(SC)nn(-c2ccc([N+](=O)[O-])cc2)c1N ?
Result block: 13.3

Query block: Quick one: inhibition at 50 µg/mL for CCOCCOC(=O)/C(C#N)=C(\NNc1c(Cl)cc(Cl)cc1Cl)C(C)C ?
Result block: 6.7

Query block: Quick one: inhibition at 50 µg/mL for CCOCCOC(=O)c1c(C(C)C)nn(-c2ccc(C)cc2)c1N ?
Result block: 13.3

Query block: Quick one: inhibition at 50 µg/mL for CCOCCOC(=O)c1c(SC)nn(-c2ccc(C)cc2)c1N ?
Result block: 22.7

Query block: Quick one: inhibition at 50 µg/mL for CCOCCOC(=O)c1c(C(C)C)nn(-c2ccc(Cl)cc2Cl)c1N ?
Result block: 9.3

Query block: Quick one: inhibition at 50 µg/mL for CCOCCOC(=O)c1c(SC)nn(-c2ccccc2)c1N ?
Result block: 0

Query block: Quick one: inhibition at 50 µg/mL for CCOCCOC(=O)/C(C#N)=C(\NNc1c(Cl)cccc1Cl)C(C)C ?
Result block: 10.7

* * *

system: Brassica napus; assay: Herbicidal activity against Brassica napus L. at 1.5 kg/hectare administered preemergence of first true leaf measured after 10 days; type: functional; details: pre-emergence, 240 h
property: inhibition at 1500 g/ha (%)
Write the value in % as a bare number.

Query block: Quick one: inhibition at 1500 g/ha for CCOCCOC(=O)/C(C#N)=C(\NNc1cc(Cl)c(Cl)cc1Cl)C(C)C ?
Result block: 0

Query block: Quick one: inhibition at 1500 g/ha for CCOCCOC(=O)c1c(SC)nn(-c2ccc(C)cc2)c1N ?
Result block: 10

Query block: Quick one: inhibition at 1500 g/ha for CCOCCOC(=O)/C(C#N)=C(/CC)NNc1ccc(Cl)cc1Cl ?
Result block: 0

* * *

Task for the reader: assign each of the following molecules its reported inhibition at 50 µg/mL.
tested on: Cladosporium cucumerinum; assay: Fungicidal activity against Cladosporium cucumerinum assessed as inhibition of mycelium growth at 50 mg/L after 72 hrs; assay type: functional
Write the value in % as a bare number.

Query block: Quick one: inhibition at 50 µg/mL for CCOCCOC(=O)c1c(CC)nn(-c2ccc(Cl)cc2)c1N ?
Result block: 14.5

Query block: Quick one: inhibition at 50 µg/mL for CCOCCOC(=O)/C(C#N)=C(/CC)NNc1cccc(Cl)c1Cl ?
Result block: 13.9

Query block: Quick one: inhibition at 50 µg/mL for CCOCCOC(=O)c1c(SC)nn(-c2ccccc2)c1N ?
Result block: 12.7

Query block: Quick one: inhibition at 50 µg/mL for CCOCCOC(=O)/C(C#N)=C(/CC)NNc1ccc(Cl)cc1Cl ?
Result block: 38.9
